Value source: ChEMBL document CHEMBL4296182

MIC tested on Cryptococcus neoformans: recorded values

QUERY: Any idea what its MIC is? The molecule is C#CC(c1ccccc1)(c1ccccc1)n1ccnc1
RESULT: > 10 µM

QUERY: Any idea what its MIC is? The molecule is CC[C@@]1(O)C(=O)OCc2c1cc1n(c2=O)Cc2cc3c(NC(=O)CN)cccc3nc2-1
RESULT: > 10 µM

QUERY: Any idea what its MIC is? The molecule is Cc1cnc(SCc2ccc(Cl)cc2Cl)nc1O
RESULT: > 10 µM

QUERY: Any idea what its MIC is? The molecule is COC12C(COC(N)=O)C3=C(C(=O)C(C)=C(N)C3=O)N1CC1C2N1C (centres undefined)
RESULT: > 10 µM
